Kindly state half-life for each of the entries shown.
Method notes: Pharmacokinetics after intravenous administration: pro-drug and released acetaminophen in plasma or blood
Type: in vivo, male Sprague-Dawley rats
Reported conditions: male, Sprague-Dawley, plasma, 66.3 umol/kg; rat, intravenous, target dose 66.3 μmol/Kg, Table 4; read-out: half life (t1/2) of the pro-drug

INSERT INTO assay_data (molecule_smiles, observation_type, result) VALUES
  ('CC(=O)Nc1ccc(O[C@H]2O[C@H](CO)[C@@H](O)[C@H](O)[C@@H]2O)cc1', 'half-life', '< 60 min'),
  ('CC(=O)Nc1ccc(O[C@H]2O[C@H](COC(=O)C(C)C)[C@@H](O)[C@H](O)[C@@H]2O)cc1', 'half-life', '< 60 min'),
  ('CC(=O)Nc1ccc(O[C@H]2O[C@H](COC(C)=O)[C@@H](O)[C@H](O)[C@@H]2O)cc1', 'half-life', '< 60 min');

As a next step, examine the compound that follows.
What value of half-life has been recorded for this entry: CCCC(=O)OC[C@H]1O[C@H](Oc2ccc(NC(C)=O)cc2)[C@@H](O)[C@@H](O)[C@@H]1O
< 60 min

* * *

Method notes: Pharmacokinetics after intravenous administration: pro-drug and released acetaminophen in plasma or blood
Assay type: in vivo, male Sprague-Dawley rats
Reported conditions: rat, intravenous, target dose 66.3 μmol/Kg, Table 4
Observation type: AUC of the pro-drug (in words)

Example entries and their recorded answers appear below.
INSERT INTO measurements (molecule_smiles, result) VALUES
  ('CC(=O)Nc1ccc(O[C@H]2O[C@H](COC(=O)CCC(=O)O)[C@@H](O)[C@H](O)[C@@H]2O)cc1', 'high AUC values'),
  ('CCCC(=O)OC[C@H]1O[C@H](Oc2ccc(NC(C)=O)cc2)[C@@H](O)[C@@H](O)[C@@H]1O', 'low values for AUC'),
  ('CC(=O)Nc1ccc(O[C@H]2O[C@H](COC(=O)C(C)C)[C@@H](O)[C@H](O)[C@@H]2O)cc1', 'low values for AUC'),
  ('CC(=O)Nc1ccc(O[C@H]2O[C@H](COC(C)=O)[C@@H](O)[C@H](O)[C@@H]2O)cc1', 'low values for AUC');

Now consider a different molecule.
Requested read-out: AUC of the pro-drug (in words). Entry: CC(=O)Nc1ccc(O[C@H]2O[C@H](C)[C@@H](O)[C@H](O)[C@@H]2O)cc1
high AUC values
